Test system: native NMDA receptors of rat CA1 hippocampal pyramidal neurons
experimentSummary: Whole-cell patch-clamp of NMDA-induced currents in isolated CA1 pyramidal neurons
Type: cell-based
settings: −80 mV holding voltage, no Mg2+, 100 µM NMDA + 10 µM glycine; read-out: IC50, µM −80 mV
// IC50 lookup, one value per entry
Note: unit µM is implicit; provide only the numeric part.

Some solved entries appear below for comparison.
# compound, testedSystem, measValue
records = [
    ("[H]/N=C(\\N/C(=N/[H])Nc1ccc(Cl)cc1)NC(C)C [Proguanil, proguanil]", "native NMDA receptors of rat CA1 hippocampal pyramidal neurons", 9),
    ("[H]/N=C(/N)N/C(=N/[H])NCCc1ccccc1 [Phenformin, phenformin]", "native NMDA receptors of rat CA1 hippocampal pyramidal neurons", 13),
]

Now look at this entry.
IC50 of CC1(C)N=C(N)N=C(N)N1c1ccc(Cl)cc1 [Cycloguanil, cycloguanil] on native NMDA receptors of rat CA1 hippocampal pyramidal neurons?
3.4

====

System: native NMDA receptors of rat CA1 hippocampal pyramidal neurons
experimentSummary: Whole-cell patch-clamp of NMDA-induced currents in isolated CA1 pyramidal neurons
Type: cell-based
settings: −30 mV holding voltage, 1 mM Mg2+; read-out: IC50 at −30 mV in the presence of 1 mM Mg2+
Reported values of IC50 for individual entries
Write down the numeric answer in µM and omit the unit.

Examples from the recorded data:
# lineNotation, IC50, µM
data = [
    ("CC1(C)N=C(N)N=C(N)N1c1ccc(Cl)cc1", 34),
    ("[H]/N=C(/N)N/C(=N/[H])NCCc1ccccc1", 41),
]

Param item = [H]/N=C(\N/C(=N/[H])Nc1ccc(Cl)cc1)NC(C)C ; retrieve measured IC50.
17

====

Test system: native NMDA receptors of rat CA1 hippocampal pyramidal neurons
experimentSummary: Whole-cell patch-clamp of NMDA-induced currents in isolated CA1 pyramidal neurons
Format: cell-based
settings: −80 mV; Figure 5; with 10 mM Mg2+
measuredMetric: washout τ, compound + Mg (representative recording) (ms)
Report as a plain number; the unit ms is understood.

# molecule, measValue
records = [
    ("[H]/N=C(/N)N/C(=N/[H])NCCc1ccccc1", 50),
]

Given the molecule CC(C(O)c1ccc(O)cc1)N1CCC(Cc2ccccc2)CC1 (stereo not shown) , what is its reported washout τ, compound + Mg (representative recording)?
28000

Entry CC1(C)N=C(N)N=C(N)N1c1ccc(Cl)cc1 has what washout τ, compound + Mg (representative recording)?
60

Dear colleague, I am looking for the recorded washout τ, compound + Mg (representative recording) of the following molecule: [H]/N=C(\N/C(=N/[H])Nc1ccc(Cl)cc1)NC(C)C
75
